- experiment-description: chemical genetic growth profiling, strain panel (AID 1159580);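 further: tested at 20 µM; growth read once vehicle control cultures reached saturation at 30 °C; 1 = growth at the plate median or of vehicle wells; lower values mean less growth of the strain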
- recorded-conditions: S. cerevisiae deletion strains, growth OD, locus YOR001W, strain rrp6, stronger effect = lower value
Among all 5,500 compounds or so, about 2,000 (36%) were called active. Not shown: some 18% with an inconclusive outcome. Some of the results follow.
Quick reference: normalized growth of the listed items.

{"columns": ["compound", "normalized growth"],
 "data": [
  ["CC[N+]1(C)CCCC(OC(=O)C(O)(c2ccccc2)c2ccccc2)C1 (stereo not given)", 1.01],
  ["COc1c(O)cc2c(-c3ccccc3)cc(=O)oc2c1OC", 1.02],
  ["C=CCCCCCCCCCCCC(O)CC(O)CO (stereo not given)", 0.998],
  ["CC[C@]12C=CCN3CC[C@@]4(c5ccc(OC)cc5N(C)C4[C@@](O)(C(=O)OC)[C@@H]1OC(C)=O)[C@@H]32 (stereo not given in full)", 1.01],
  ["C/C(=C\\C(=O)OCCCCCCCCC(=O)O)C[C@@H]1OC[C@H](C[C@@H]2O[C@H]2[C@@H](C)[C@H](C)O)[C@@H](O)[C@H]1O", 0.991]
]}

###

- experiment-description: chemical genetic growth profiling, strain panel (AID 1159580);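 further: tested at 20 µM; growth read once vehicle control cultures reached saturation at 30 °C; 1 = growth at the plate median or of vehicle wells; lower values mean less growth of the strain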
- recorded-conditions: S. cerevisiae strains, growth OD, strain wild type, stronger effect = lower value
Out of some 5,500 compounds screened, about 2,000 (36%) were called active. Inconclusive results (about 18%) are left out. The list shows a part of the results.
measured-property: normalized growth

{"columns": ["compound", "measured-property", "reported"],
 "data": [
  ["COc1cc2c3cc1Oc1cc(ccc1O)C[C@@H]1c4c(cc(OC)c(O)c4Oc4ccc(cc4)C[C@@H]3N(C)CC2)CC[N+]1(C)C", "normalized growth", 1.01],
  ["O=c1c(-c2ccccc2)coc2cc(O)cc(O)c12", "normalized growth", 0.772],
  ["CC(=O)O.CC(=O)O.[Cd]", "normalized growth", 0.13],
  ["C=CCc1ccccc1OCC(O)CNC(C)C (stereo unspecified)", "normalized growth", 1],
  ["Cn1c(=O)c2[nH]c(C3CCCC3)nc2n(C)c1=O", "normalized growth", 1.01],
  ["Clc1cccc(-c2csc(Nc3cccnc3)n2)c1", "normalized growth", 0.997],
  ["O=c1oc2ccccc2c(O)c1Cc1c(O)c2ccccc2oc1=O", "normalized growth", 0.998],
  ["ClC(Cl)=C(c1ccc(Cl)cc1)c1ccc(Cl)cc1", "normalized growth", 0.958],
  ["CC(C)(Oc1ccc(Cl)cc1)C(=O)O", "normalized growth", 0.995],
  ["O=c1c(-c2cc(O)c(O)c(O)c2)coc2cc(O)c(O)c(O)c12", "normalized growth", 0.78],
  ["COC(=O)c1cn(Cc2ccc(C(F)(F)F)cc2)cc(F)c1=O", "normalized growth", 1.02],
  ["CN(C)CCC=C1c2ccccc2CCc2ccccc21", "normalized growth", 1.01],
  ["CCCCCn1c(Sc2ncc([N+](=O)[O-])s2)n[nH]c1=O", "normalized growth", 0.0897],
  ["CCCN1C[C@H](CSC)C[C@@H]2c3cccc4[nH]cc(c34)C[C@H]21", "normalized growth", 0.997],
  ["COc1cccc(-c2cc(=O)c3cc(OC)ccc3o2)c1", "normalized growth", 0.972],
  ["c1ccc(Sc2c(-c3ccccc3)nc3ccccn23)cc1", "normalized growth", 0.92],
  ["CC1=NCCc2c1[nH]c1cc(O)ccc21", "normalized growth", 0.988],
  ["O=c1c2ccccc2[se]n1-c1ccccc1", "normalized growth", 0.0481],
  ["O=C(O)c1nc2cc(Cl)c(Cl)cc2[nH]c1=O", "normalized growth", 1.01],
  ["CC(=O)Nc1ccc(O)cc1", "normalized growth", 0.953],
  ["Cn1nnnc1SCC1=C(C(=O)O)N2C(=O)C(NC(=O)C(O)c3ccccc3)C2SC1 (stereo unspecified)", "normalized growth", 1.02],
  ["COC(=O)C1=C(C)NC(C)=C(C(=O)OCCN(C)Cc2ccccc2)C1c1cccc([N+](=O)[O-])c1 (stereo unspecified)", "normalized growth", 0.998],
  ["COc1c(O)cccc1O", "normalized growth", 1],
  ["COc1cc([C@@H]2c3cc4c(cc3[C@H](O)[C@H]3COC(=O)[C@@H]23)OCO4)cc(OC)c1OC", "normalized growth", 1.02],
  ["Cc1ccc(OCC(=O)NN)c2c1CCC2", "normalized growth", 1.01],
  ["COc1ccc(-c2cc(=O)c3ccccc3o2)cc1", "normalized growth", 0.682],
  ["COc1cc(NC(=O)NS(=O)(=O)c2ccc(C)cc2)cc(C(F)(F)F)c1", "normalized growth", 1],
  ["CN1CCc2c(c3ccccc3n2Cc2ccccc2)C1", "normalized growth", 0.947],
  ["COc1cc([C@@H]2c3cc4c(cc3C(O[C@@H]3O[C@@H]5CO[C@@H](c6cccs6)OC5[C@H](O)[C@H]3O)C3COC(=O)[C@@H]32)OCO4)cc(OC)c1O (stereo partly specified)", "normalized growth", 1.01],
  ["CC(=O)CC(c1ccccc1)c1c(O)c2ccccc2oc1=O (stereo unspecified)", "normalized growth", 1.02],
  ["CC(=O)Oc1cc(-c2coc3cc(OC(C)=O)c(OC(C)=O)c(OC(C)=O)c3c2=O)cc(OC(C)=O)c1OC(C)=O", "normalized growth", 0.75],
  ["CC[N+]1(C)CCCC(OC(=O)C(O)(c2ccccc2)c2ccccc2)C1 (stereo unspecified)", "normalized growth", 1.01],
  ["Cc1ccc(COc2ccc(C)nc2[N+](=O)[O-])cc1", "normalized growth", 0.859],
  ["COc1ccc(-c2coc3cc(O)cc(O)c3c2=O)cc1", "normalized growth", 0.244],
  ["Nc1ccc(C(=O)O)c(O)c1", "normalized growth", 1.01],
  ["COc1ccc(-c2cc(=O)c3c(OC(C)=O)cc(OC(C)=O)cc3o2)cc1", "normalized growth", 0.971],
  ["O=C1CCCc2c1c1ccccc1n2Cc1ccccc1", "normalized growth", 0.974],
  ["CC(C)[C@]12O[C@H]1[C@@H]1O[C@@]13[C@@]1(C)CCC4=C(COC4=O)[C@@H]1C[C@@H]1O[C@@]13C2=O", "normalized growth", 1.01],
  ["COC(=O)c1ccc(Cl)cc1N(Cc1ccccc1)S(C)(=O)=O", "normalized growth", 1.03],
  ["CNCCC=C1c2ccccc2CCc2ccccc21", "normalized growth", 1.01],
  ["CC(=O)Oc1cc(OC(C)=O)c2c(=O)c(-c3ccccc3)coc2c1", "normalized growth", 1.01],
  ["NCC(=O)CCC(=O)O", "normalized growth", 1.01],
  ["C=C1C(N)CC2CC1C2(C)C (stereo unspecified)", "normalized growth", 1.02],
  ["CCn1cc(C(=O)O)c(=O)c2cc(F)c(N3CCNCC3)cc21", "normalized growth", 1.01],
  ["CC(=O)N(O)CCCCCNC(=O)CCC(=O)N(O)CCCCCNC(=O)CCC(=O)N(O)CCCCCN", "normalized growth", 1.01],
  ["O=C1CCc2cc(OCCCCc3nnnn3C3CCCCC3)ccc2N1", "normalized growth", 1.01]
]}

###

- experiment-description: chemical genetic growth profiling, strain panel (AID 1159580);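 further: tested at 20 µM; growth read once vehicle control cultures reached saturation at 30 °C; 1 = growth at the plate median or of vehicle wells; lower values mean less growth of the strain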
- recorded-conditions: S. cerevisiae deletion strains, growth OD, locus YCR088W, strain abp1, stronger effect = lower value
The campaign covered roughly 5,500 compounds. About 2,000 (36%) were called active. Inconclusive results (about 18%) are left out. The list shows a part of the results.
Measured normalized growth, listed per entry.

{"columns": ["compound", "normalized growth"],
 "data": [
  ["CC(C(=O)O)[C@H]1CCC2C3CC=C4C[C@@H](O)CC[C@]4(C)C3CC[C@@]21C (stereo partly specified)", 1.04],
  ["CN(C)CC/C=C1/c2ccccc2COc2ccccc21", 1.03],
  ["COCCOC(=O)C1=C(C)NC(C)=C(C(=O)OC(C)C)C1c1cccc([N+](=O)[O-])c1 (stereo unspecified)", 1.01],
  ["CNCCC=C1c2ccccc2CCc2ccccc21", 0.978],
  ["CCN1CCN(c2cc3c(cc2F)c(=O)c(C(=O)O)cn3C2CC2)CC1", 1.01],
  ["O=C(O)/C=C(\\CC(=O)O)C(=O)O", 0.99],
  ["CCC(/C=C/[C@@H](C)[C@H]1CCC2C3CC=C4C[C@@H](O)CC[C@]4(C)C3CC[C@@]21C)C(C)C (stereo partly specified)", 0.994],
  ["CN(C)CCC=C1c2ccccc2CCc2ccccc21", 0.953],
  ["CN(N=O)C(=O)N[C@@H]1[C@@H](O)[C@H](O)[C@@H](CO)O[C@@H]1O", 0.973],
  ["CN(C)CCC=C1c2ccccc2C=Cc2ccccc21", 0.998],
  ["O=C(O)c1cn(-c2ccc(F)cc2)c2cc(N3CCNCC3)c(F)cc2c1=O", 0.982]
]}
